Numbers sourced from ChEMBL document CHEMBL4619796.

For each record, write down the corresponding Ratio IC50.
Species on record: Homo sapiens
Assay: Selectivity ratio of IC50 for PI3Kgamma (unknown origin) using PIP2:3PS peptide as substrate preincubated for 15 mins followed by ATP addition at Km concentration and further incubated for 120 mins by ADP-Glo assay to IC50 for PI3Kalpha (unknown origin) using PIP2:3PS peptide as substrate preincubated for 15 mins followed by ATP addition at Km concentration and further incubated for 150 mins by ADP-Glo assay
Give a plain numeric answer without units written out.

query: Look up and report measured Ratio IC50 for this entry: COc1ncc(-c2ccc3ncn(CC4(C(N)=O)CC4)c(=O)c3c2)cc1NS(=O)(=O)c1ccc(F)cc1Cl
result: 3.61

query: Look up and report measured Ratio IC50 for this entry: COc1ncc(-c2ccc3ncn(C[C@@H](C)C(=O)N4CCOCC4)c(=O)c3c2)cc1NS(=O)(=O)c1ccc(F)cc1Cl
result: 0.71

query: Look up and report measured Ratio IC50 for this entry: CCNC(=O)[C@H](C)Cn1cnc2ccc(-c3cnc(OC)c(NS(=O)(=O)c4ccc(F)cc4Cl)c3)cc2c1=O
result: 6.28

query: Look up and report measured Ratio IC50 for this entry: CNC(=O)[C@H](C)Cn1cnc2ccc(-c3cnc(OC)c(NS(=O)(=O)c4ccc(Cl)cc4Cl)c3)cc2c1=O
result: 10.8

query: Look up and report measured Ratio IC50 for this entry: COc1ncc(-c2ccc3ncn(C[C@@H](C)C(=O)NC4CCC4)c(=O)c3c2)cc1NS(=O)(=O)c1ccc(F)cc1Cl
result: 3.27

query: Look up and report measured Ratio IC50 for this entry: COc1ncc(-c2ccc3ncc(NC(=O)N4CCC[C@H]4C(N)=O)c(=O)n3c2)cc1NS(=O)(=O)c1ccc(F)cc1Cl
result: 7.4
